- Test system: Wnt activity (Sp5-Luc reporter, SW480 colon carcinoma cells)
- PROTOCOL_NOTES: Wnt activity screening assay: Sp5-Luc reporter gene assay in SW480 cells
- Assay type: cell-based
- CONDITION_LABEL: Homo sapiens, SW480 cells, overnight incubation
ASSAY_ENDPOINT: EC50

Please review the entries below; each comes with its answer.
>  <COMPOUND_STRUCTURE>
CN1CCN(c2ccnc3[nH]c(-c4n[nH]c5ccc(-c6cncc(NC(=O)C(C)(C)C)c6)nc45)cc23)CC1

>  <EC50>
3.83 µM

$$$$
>  <COMPOUND_STRUCTURE>
CN(C)c1cncc(-c2ccc3[nH]nc(-c4cc5c(-c6ccoc6)ccnc5[nH]4)c3n2)c1

>  <EC50>
> 10 µM

$$$$
>  <COMPOUND_STRUCTURE>
O=C(Cc1ccccc1)Nc1cncc(-c2ccc3[nH]nc(-c4cc5c(-c6ccoc6)ccnc5[nH]4)c3n2)c1

>  <EC50>
> 10 µM

$$$$

Using the record for c1cc(N2CCCCC2)c2cc(-c3n[nH]c4ccc(C5CCNCC5)nc34)[nH]c2n1 , state its measured EC50.
> 10 µM

Using the record for c1cnc2[nH]c(-c3n[nH]c4ccc(-c5cncnc5)nc34)cc2c1 , state its measured EC50.
> 10 µM

Using the record for Oc1cncc(-c2ccc3[nH]nc(-c4cc5c(-c6ccc(F)cc6)ccnc5[nH]4)c3n2)c1 , state its measured EC50.
0.31 µM

Using the record for O=C(Nc1cncc(-c2ccc3[nH]nc(-c4cc5c(-c6ccccc6F)ccnc5[nH]4)c3n2)c1)C1CC1 , state its measured EC50.
> 10 µM

----------
# EC50 per entry
- Tested on: IL-6 (THP-1 cells)
- PROTOCOL_NOTES: IL-6 inhibition in LPS-stimulated THP-1 cells (HTRF)
- Type: cell-based
- CONDITION_LABEL: Homo sapiens; THP-1 cells, LPS 500 ng/mL, 22 hours, IL6 HTRF
- Method: Human Monocyte Cell Culture: Human monocyte cell line (THP-1 cells; Catalog # TIB-202, ATCC, Manassas, Va.) were cultured in Roswell Park Memorial Institute (RPMI) 1640 Medium (Catalog #21870-100, Buffalo, N.Y.) with 1% L-glutamine, 1% HEPES, 1% Sodium Pyruvate, 2% Sodium Bicarbonate supplemented with 100 units/mL penicillin, 50 μg/mL streptomycin, 2-mercaptoethanol (0.05 mM) [basal medium] and 10% fetal bovine serum (Catalog #16140089, Life Technologies, Carlsbad, Calif.) at 37° C. and 5% CO2. […]

Please review the entries below; each comes with its answer.
>  <COMPOUND_STRUCTURE>
CN1CCN(c2ccnc3[nH]c(-c4n[nH]c5ccc(-c6cn[nH]c6)nc45)cc23)CC1

>  <SYSTEM_UNDER_TEST>
IL-6 (THP-1 cells)

>  <RESULT>
> 10 µM

$$$$
>  <COMPOUND_STRUCTURE>
c1cncc(-c2ccnc3[nH]c(-c4n[nH]c5ccc(-c6ccncc6)nc45)cc23)c1

>  <SYSTEM_UNDER_TEST>
IL-6 (THP-1 cells)

>  <RESULT>
> 10 µM

$$$$
>  <COMPOUND_STRUCTURE>
O=C(CC1CCNCC1)Nc1cncc(-c2ccc3[nH]nc(-c4cc5c(-c6ccoc6)ccnc5[nH]4)c3n2)c1

>  <SYSTEM_UNDER_TEST>
IL-6 (THP-1 cells)

>  <RESULT>
3.34 µM

$$$$

Using the record for CC(C)(C)C(=O)Nc1cncc(-c2ccc3[nH]nc(-c4cc5c(-c6cccc(F)c6)ccnc5[nH]4)c3n2)c1 , state its measured EC50.
> 10 µM

Using the record for CN(C)CCNc1cc(F)cc(-c2ccnc3[nH]c(-c4n[nH]c5ccc(-c6cncc(CNCC7CCCC7)c6)nc45)cc23)c1 , state its measured EC50.
6.75 µM

Using the record for c1csc(-c2ccnc3[nH]c(-c4n[nH]c5ccc(-c6cncnc6)nc45)cc23)c1 , state its measured EC50.
> 10 µM

Using the record for c1cc(N2CCCCC2)c2cc(-c3n[nH]c4ccc(C5CCNCC5)nc34)[nH]c2n1 , state its measured EC50.
3.5 µM

Using the record for FC1(F)CCN(Cc2cncc(-c3ccc4[nH]nc(-c5cc6cccnc6[nH]5)c4n3)c2)C1 , state its measured EC50.
0.107 µM

Using the record for CN(C)Cc1cncc(-c2ccc3[nH]nc(-c4cc5cccnc5[nH]4)c3n2)c1 , state its measured EC50.
0.653 µM

Using the record for O=C(Nc1cncc(-c2ccc3[nH]nc(-c4cc5c(-c6ccc(F)cc6)ccnc5[nH]4)c3n2)c1)c1ccccc1 , state its measured EC50.
> 10 µM

The values you see were collected from patent US10206909B2.
